Some compounds, each annotated with its measured growth.
Tested on: CAKI-1 renal
Assay: NCI-60 one-dose screen, 48 h (100 = growth as untreated, 0 = no growth, -100 = all killed)
Details: 10 µM unless noted
This is part of a sample that, as a whole, favours compounds with a hit. Of some 83,000 tested, about 20% had one in any assay. Calls of active or inactive are those of the source. How the source made its calls: active means growth percent below 10; inactive means the rest.

Prompt: Recorded growth for Cn1cc(-c2csc(-c3cn(C)c4ccc(F)cc34)n2)c2cnccc21 , please?
Response: -43.9% (active)

Prompt: Try this compound next: Cc1ccc(C2=Nc3c(N)nc(N)nc3NC(c3cccc(Nc4ccnc5cc(C(F)(F)F)ccc45)c3)C2)cc1 (stereo not given)
Response: 29% (inactive)

Prompt: Try this compound next: COc1nc2ccccc2cc1/C=[N+](\[O-])c1ccccc1
Response: 79.8% (inactive)

Others:
Prompt: Recorded growth for CC(C)n1nc(-c2ccc3oc(N)nc3c2)c2c(N)ncnc21 , please?
Response: 2.4% (active)

Prompt: Try this compound next: C=CC(=O)Nc1ccc2ncnc(Nc3cccc(NS(=O)(=O)CCC)c3Cl)c2c1
Response: 22.6% (inactive)

---

Tested on: OVCAR-8 ovarian
Experiment: NCI-60 one-dose screen, 48 h
Settings: 10 µM unless noted
This is part of a sample that, as a whole, favours compounds with a hit. Of some 83,000 tested, about 20% had one in any assay. Calls of active or inactive are those of the source. Rule for the calls: active = growth percent below 10; inactive = the rest.
Hi there, use one of these labels in your reply, thanks! active, inactive

Past entries and their recorded results:
Prompt: Hey, what did the test say about FC(F)(F)c1cc(N2CCCCC2)nc(NCCCNc2ccnc3cc(Cl)ccc23)n1 ?
Response: inactive

Prompt: Try this compound next: COc1ccc(-c2csc(NC(=O)CSc3nc(C)cc(=O)[nH]3)n2)cc1
Response: inactive

Prompt: Try this compound next: O=C(O)c1nn(-c2ccc(Cl)cc2)nc1N1CCCC1
Response: inactive

Others:
Prompt: Hey, what did the test say about Cc1csc(Nc2nc(-c3cccc(Cl)c3)nc(C(Cl)(Cl)Cl)n2)n1 ?
Response: inactive

Prompt: Try this compound next: Cc1oc2ccc(O)c(CN3CCCCCC3)c2c1C(=O)Nc1ccc(C(F)(F)F)cc1
Response: inactive

Prompt: Try this compound next: COCCn1cc(-c2nc(-c3cc4cccnc4n3C)cs2)c2cc(OC)ccc21
Response: inactive

Prompt: Try this compound next: C/C(=N\NC(=O)c1ccc(C(C)(C)C)cc1)c1ccc(O)cc1O
Response: inactive

Prompt: Try this compound next: CC1=C(C(=O)OCc2ccccc2)C(c2ccc3c(c2)OCO3)n2c(nc3ccccc32)N1 (stereo unspecified)
Response: inactive

Prompt: Try this compound next: Cc1[nH]c(C(=O)Nc2ccccc2OC2CCNC2)c(Cl)c1Cl (stereo unspecified)
Response: inactive

Prompt: Try this compound next: COc1ccc(-c2ccc(-c3ccc(C(=N)N)nc3)s2)cc1
Response: active

Prompt: Try this compound next: O=C1/C(=C/c2ccccc2)COc2ccc(O)cc21
Response: inactive

---

Test system: COLO 205 colon
Assay: NCI-60 one-dose screen, 48 h
Conditions: 10 µM unless noted
This is part of a sample that, as a whole, favours compounds with a hit. Of some 83,000 tested, about 20% had one in any assay. Active and inactive are the calls of the source. The calls were made as follows: active = growth percent below 10; inactive = the rest.
Hi there, use one of these labels in your reply, thanks! active, inactive

Prompt: Hey, what did the test say about Fc1ccc(/C=C/c2cc(/C=C/c3ccc(F)cc3)n(-c3cc(F)cc(F)c3)n2)cc1 ?
Response: inactive

Others:
Prompt: Hey, what did the test say about C(=N\Nc1nnc2n1N=C(c1ccccc1)CS2)/c1ccc(OCc2ccccc2)cc1 ?
Response: inactive

Prompt: Try this compound next: O=C(/C=C/c1ccc(Cl)cc1)c1ccc(-n2cc(CN3CCN(c4cc5c(cc4F)c(=O)c(C(=O)O)cn5C4CC4)CC3)nn2)cc1
Response: inactive

Prompt: Try this compound next: c1ccc2c(-c3cnn4cc(-c5ccc(N6CCNCC6)cc5)cnc34)ccnc2c1
Response: active

Prompt: Try this compound next: [2H]C([2H])([2H])Oc1ccc(/C=C/C(=O)/C=C(/C=C/c2ccc(OC([2H])([2H])[2H])c(OC([2H])([2H])[2H])c2OC([2H])([2H])[2H])OB(F)F)c(OC([2H])([2H])[2H])c1OC([2H])([2H])[2H]
Response: inactive

---

Tested on: 786-0 renal
Test: NCI-60 one-dose screen, 48 h (100 = growth as untreated, 0 = no growth, -100 = all killed)
Conditions: 10 µM unless noted
The panel holds about 83,000 compounds, 20% with a hit somewhere; the sample as a whole holds those more often.
attributeMeasured: growth (%)
Answer in %, number only, no unit symbol.

Prompt: Recorded growth for C=CCn1c(SCC(=O)Nc2ccc(C(=O)/C=C/c3ccc(Cl)cc3)cc2)nnc1-c1ccccc1 , please?
Response: 81.8

Prompt: Try this compound next: Cc1ccc(Nc2cc(N)nc(N)n2)cc1
Response: 99.6

Prompt: Try this compound next: C=CC(=O)Nc1ccc2ncnc(Nc3cccc(NS(=O)(=O)CCC)c3Cl)c2c1
Response: 42.4

Prompt: Try this compound next: COc1ccc(C(=O)/C=C/c2ccc(Cl)cc2)cc1S(N)(=O)=O
Response: -30.7

Others:
Prompt: Recorded growth for C=CCn1c(SCC(=O)Nc2ccc(C(=O)/C=C/c3cc(OC)c(OC)c(OC)c3)cc2)nnc1-c1cc(-c2ccc(S(N)(=O)=O)cc2)nc2ccccc12 , please?
Response: 101

Prompt: Try this compound next: COc1cccc(CNc2nnc(C)c(C)n2)c1O
Response: 104

Prompt: Try this compound next: Cc1[nH]c(C2CC(c3ccc(C(F)(F)F)c(F)c3)=NN2C)c(C)c1C(=O)NCC(F)(F)F (centres undefined)
Response: 109

Prompt: Try this compound next: COc1cc(/C=C2\CN(S(=O)(=O)c3ccc(C)cc3)C/C(=C\c3cc(CN4CCCC4)c(O)c(OC)c3)C2=O)cc(CN2CCCC2)c1O
Response: -74.7

Prompt: Try this compound next: O=C(NS(=O)(=O)c1ccccc1)n1cc(-c2ccncc2)c(-c2cc(O)cc(Cl)c2)n1
Response: 98

---

System: TK-10 renal
Test: NCI-60 one-dose screen, 48 h (100 = growth as untreated, 0 = no growth, -100 = all killed)
Settings: 10 µM unless noted
This is part of a sample that, as a whole, favours compounds with a hit. Of some 83,000 tested, about 20% had one in any assay.
Some compounds, each annotated with its measured growth.
Answer in %, number only, no unit symbol.

Examples with answers:
Prompt: Recorded growth for Cc1cccc(CN(Nc2ccccc2)c2ccccc2)n1 , please?
Response: 108

Prompt: Try this compound next: COc1cc(/C=C/C(=O)c2ccc(-n3cc(CN4CCN(c5cc6c(cc5F)c(=O)c(C(=O)O)cn6C5CC5)CC4)nn3)cc2)cc(OC)c1OC
Response: 97.8

Prompt: Try this compound next: COc1cc(/C=C2\C(=O)N(CCOc3cc(O)c4c(=O)cc(-c5ccccc5)oc4c3)c3ccccc32)cc(OC)c1O
Response: 109

Prompt: Try this compound next: CN1CCN(Cc2ccc(NC(=O)c3cncc(C#Cc4cnc(N)c5ccc(C#N)cc45)c3)cc2C(F)(F)F)CC1
Response: -2.47

Prompt: Try this compound next: CCOC(=O)/C=C1\S/C(=N\Nc2cc(=O)[nH]c3ccc(OC)cc23)N(c2ccccc2)C1=O
Response: 117

Prompt: Try this compound next: CN1/C(=C/C=C/c2n(Cc3ccc4ccccc4c3)c(Cl)c(Cl)[n+]2Cc2ccc3ccccc3c2)Oc2ccccc21
Response: -90.5

Others:
Prompt: Recorded growth for CCc1ccc(Cc2cnc(NC(=O)c3cc(C)oc3C)s2)cc1 , please?
Response: 60.1

Prompt: Try this compound next: CCN(CC)CCOc1ccc(/C(=C(\C)Cc2ccc(OC)cc2)c2ccc(O)cc2)cc1
Response: 35.8

---

Some molecules, each annotated with its measured growth.
Test system: HS 578T breast
Experiment: NCI-60 one-dose screen, 48 h (100 = growth as untreated, 0 = no growth, -100 = all killed)
Settings: 10 µM unless noted
This is part of a sample that, as a whole, favours compounds with a hit. Of some 83,000 tested, about 20% had one in any assay.
Answer in %, number only, no unit symbol.

Examples with answers:
Prompt: Recorded growth for COc1cccc(/C=C2\CCc3ccccc3C2=O)c1 , please?
Response: 87.4

Prompt: Try this molecule next: CN(C)CCOc1ccc(/C(=C(/CCCCCCCCCC[P+](c2ccccc2)(c2ccccc2)c2ccccc2)c2ccccc2)c2ccccc2)cc1
Response: -36.4

Prompt: Try this molecule next: CN1CCN(Cc2ccc(NC(=O)c3cc(C#Cc4cnc(N)c5ncccc45)n(C)n3)cc2C(F)(F)F)CC1
Response: 25

Prompt: Try this molecule next: CN1C(=O)N(C)C2C1NN=c1s/c(=C\c3ccccc3F)c(=O)n12 (stereo not drawn)
Response: 7.57

Prompt: Try this molecule next: CCCCN(CCC#N)C(N)=O
Response: 105

Prompt: Try this molecule next: O=C1/C(=C/c2ccc(-c3ccc(Cl)cc3)o2)SC(=S)N1CCc1ccc(O)cc1
Response: 36.6

Prompt: Try this molecule next: CCOc1ccc(-c2cc(C3(S(=O)(=O)c4ccc(C)cc4)CC=CC3)on2)cc1
Response: 96.4

Prompt: Try this molecule next: Cc1c(CC(=O)Nc2ccccc2)nnn1-c1ccccc1
Response: 102

Others:
Prompt: Recorded growth for COc1cccc(C(=O)Nc2cccc(NC(=O)c3ccccn3)c2)c1 , please?
Response: 116

Prompt: Try this molecule next: CCN1CCN(C(=O)[C@]23CC[C@@H](C)[C@H](C)[C@@H]2C2=CC[C@@H]4[C@@]5(C)C/C(=C/c6ccncc6)C(=O)C(C)(C)[C@@H]5CC[C@@]4(C)[C@]2(C)CC3)CC1
Response: 7.21

Prompt: Try this molecule next: COc1ccc(/C=C2/CCc3cc4ccc(OC)cc4[o+]c32)c(O)c1
Response: 75.3

Prompt: Try this molecule next: NC(=O)[C@@H]1Cc2ccccc2CN1C(=O)c1ccc2c(c1)Cc1ccccc1-2
Response: 93.8

Prompt: Try this molecule next: COc1cc(C(=O)/C=C/c2c(-c3cccs3)nc3sc(C)cn23)cc(OC)c1OC
Response: -16.2

Prompt: Try this molecule next: COC(=O)c1c(C)nc(C)c2c1C(=O)C(Br)=C(NCCN1CCOCC1)C2=O
Response: 110

Prompt: Try this molecule next: Cc1ccc(-c2nnc(SCc3nc(N)nc(Nc4ccccc4F)n3)n2-c2ccccc2)cc1
Response: 87.1

Prompt: Try this molecule next: Cc1cc2c(c(C)n1)CN(C(=O)Nc1nc(-c3cncs3)ccc1N)C2
Response: 104

Prompt: Try this molecule next: C=CC(=O)NCc1cccc(Nc2ncc(Br)c(NCCCNC(=O)C3CCC3)n2)c1
Response: -14.1

Prompt: Try this molecule next: O=C1c2c(c3c4cccnc4[nH]c3c3ccc4ccccc4c23)C(=O)N1O
Response: 70.9

Prompt: Try this molecule next: Nc1nc(=O)n([C@H]2CC=C(CO)O2)cc1F
Response: 83.6

Prompt: Try this molecule next: COc1cccc(C2C3=C(COC3=O)N(CCO)c3cc4c(cc32)OCCO4)c1 (stereo not drawn)
Response: -5.22

Prompt: Try this molecule next: FC(F)(F)c1cc(N2CCCCC2)nc(NCCCNc2ccnc3cc(Cl)ccc23)n1
Response: 74.7

Prompt: Try this molecule next: O=c1c(Cc2ccc(F)cc2)cc(-c2ccccc2)nn1C/C(=N/O)c1ccccc1
Response: 73.8

Prompt: Try this molecule next: C/C=C(/C)C(=O)O[C@@H]1CC(C)(C)CC2C34OC(=O)[C@@]21CC[C@@]3(C)[C@]1(C)CCC2C(C)(C)C(=O)CC[C@]2(C)C1C[C@@H]4O (stereo partly drawn)
Response: 78.3

Prompt: Try this molecule next: COc1ccc(NC(=O)CSc2oc(-c3ccccc3)nc2S(=O)(=O)c2ccc(Cl)cc2)c(OC)c1
Response: 36.2

Prompt: Try this molecule next: CCOC(=O)c1c(NC(=S)Nc2ccc([N+](=O)[O-])cc2)sc2c1CCCCC2
Response: 81.8
